Provide the recorded growth for the entries that follow.
System: E. coli TESEC Mtb Alr
assay-notes: growth (OD600 after 10 h); higher = more growth (less inhibition)
test-conditions: arabinose 10000000 nM; compound 0.1 mM; raw OD600 reference: median of DMSO wells […], cell-free background 0.052
Counter-ions that a name gives are not always drawn.
Answer field: number only, no words.

Input: Find growth (E. coli TESEC Mtb Alr) for the entry CN(C(=O)CN(CCO)CC(=O)N(C)C(C)(C)Cc1ccccc1)C(C)(C)Cc1ccccc1
Output: 0.0514

Input: Find growth (E. coli TESEC Mtb Alr) for the entry CCC(C)(CN(C)C)OC(=O)c1ccccc1 (configuration not stated) [Amyleine hydrochloride]
Output: 0.333

Input: Find growth (E. coli TESEC Mtb Alr) for the entry C=C1/C(=C\C=C2/CCC[C@]3(C)[C@@H]([C@H](C)CCCC(C)C)CC[C@@H]23)C[C@@H](O)C[C@@H]1O
Output: 0.149

Input: Find growth (E. coli TESEC Mtb Alr) for the entry Nc1ccc(S(=O)(=O)Nc2ccc(Cl)nn2)cc1
Output: 0.28

Input: Find growth (E. coli TESEC Mtb Alr) for the entry C=CCc1ccccc1OCC(O)CNC(C)C (configuration not stated) [Alprenolol hydrochloride]
Output: 0.363

Input: Find growth (E. coli TESEC Mtb Alr) for the entry COc1cc(C(=O)NC2CCCNC2)cc(OC)c1OC (configuration not stated) [Troxipide]
Output: 0.359

Input: Find growth (E. coli TESEC Mtb Alr) for the entry CN(C)CCC(c1ccc(Br)cc1)c1ccccn1 (configuration not stated) [Brompheniramine maleate]
Output: 0.339

Input: Find growth (E. coli TESEC Mtb Alr) for the entry CCCNC(C)C(=O)Nc1ccccc1C (configuration not stated) [Prilocaine hydrochloride]
Output: 0.333

Input: Find growth (E. coli TESEC Mtb Alr) for the entry Nc1ccc(S(N)(=O)=O)cc1 [Sulfanilamide]
Output: 0.386

Input: Find growth (E. coli TESEC Mtb Alr) for the entry Cc1nc2ccccn2c(=O)c1CCN1CCC(C(=O)c2ccc(F)cc2)CC1
Output: 0.312

Input: Find growth (E. coli TESEC Mtb Alr) for the entry c1cnc(N2CCN(Cc3ccc4c(c3)OCO4)CC2)nc1 [Piribedil hydrochloride]
Output: 0.366

Input: Find growth (E. coli TESEC Mtb Alr) for the entry O=C(Nc1cccc2c(=O)cc(-c3nnn[nH]3)oc12)c1ccc(OCCCCc2ccccc2)cc1
Output: 0.308

Input: Find growth (E. coli TESEC Mtb Alr) for the entry CN(C)CCCN1c2ccccc2CCc2ccc(Cl)cc21 [Clomipramine hydrochloride]
Output: 0.193

Input: Find growth (E. coli TESEC Mtb Alr) for the entry CN1CCCC(n2nc(Cc3ccc(Cl)cc3)c3ccccc3c2=O)CC1 (configuration not stated) [Azelastine HCl]
Output: 0.312

Input: Find growth (E. coli TESEC Mtb Alr) for the entry O=C1CCc2ccc(OCCCCN3CCN(c4cccc(Cl)c4Cl)CC3)cc2N1
Output: 0.0531

Input: Find growth (E. coli TESEC Mtb Alr) for the entry CC[C@H](C)C(=O)O[C@H]1CCC=C2C=C[C@H](C)[C@H](CC[C@@H]3C[C@@H](O)CC(=O)O3)[C@H]21
Output: 0.214

Input: Find growth (E. coli TESEC Mtb Alr) for the entry CCCCC(CC)CN1CN(CC(CC)CCCC)CC(C)(N)C1 (configuration not stated)
Output: 0.0486
